- System: PPARa:RXRa (NR concentration 270 nM, RXRa partner concentration 90 nM)
- assay.info: PBM binding z-score (relative to random genomic background probes); higher = stronger binding; sequences stand for … in GC…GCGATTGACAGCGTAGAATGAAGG
Decide by PBM binding z-score: equal to or exceeding 3 means YES, less means NO.

These solved cases illustrate the format of a correct answer.
>>> class_label("ACAGACAGGTGAGTGAAGGTAACCCAGCTGGACG")
"NO"
>>> class_label("ATAATGAGGTTACCAAAGATCAGGGAAACGCTTG")
"YES"
>>> class_label("CCTTGGAGGACAGAAGGTCAGAGCTGTCCGCTTT")
"NO"
>>> class_label("CATACTAGGTCACGAAAGGTCAAAGTCGAATGAC")
"YES"
>>> class_label("ACTTACGGTTCAACGAGGTTATAGCACGCGTATA")
"YES"

Could you please find out whether CCTAGTTGGACAAGGTCACACACGCTATAGGTAC has PBM binding z-score that meets 3 or exceeds it?
YES

Same for ATATGTAGGTTAAATCCGGGTCATTCAGGCTATG
YES

Same for AGAATGAGGTTATTAAGATTAGGGAATTGCGGTC
NO

Same for ATCTCTAGGTAACATGTTCAGTGAAAGAGAGGAC
NO

Same for ATCTCTAGGTAAAAGTGCAGTGAATCCCGAGGAT
NO

Same for CTCGAAAGGGCGGTTGAGGTGAGTATACGGATAA
NO

Same for TAGCCTAGGTCATTCGGCCAGTATAGTACGCATC
YES

====

- Tested on: VDR homodimer (NR concentration 270 nM)
- assay.info: PBM binding z-score (relative to random genomic background probes); higher = stronger binding; sequences stand for … in GC…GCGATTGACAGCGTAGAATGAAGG
Consider the following sequences and their measured PBM binding z-score readings.

# annotated cases, reported PBM binding z-score shown
>>> result("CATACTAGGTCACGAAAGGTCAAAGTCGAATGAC")
4.71
>>> result("AATACAGGGTCACTAGGCCAGAGCAGGTACGAAT")
2.39
>>> result("ATCGAAAGGTCGTGAGGTGGGTATACAGAAAGGC")
1.38
>>> result("TCGAGTAGGTTAGTCGGGGCTTTCAGCCAACATA")
-0.862
>>> result("GTACCAAGGTGAATAAGTCGTTGATGAGTAGGCG")
0.148

// moving on: another record for PBM binding z-score
Give PBM binding z-score (VDR homodimer (NR concentration 270 nM)) of the following sequence: CCTAGCAGGCCAGCGTCACTCAAGCATTTCGCTT
-0.635

====

- Tested on: LXRa homodimer (NR concentration 270 nM)
- assay.info: PBM binding z-score (relative to random genomic background probes); higher = stronger binding; sequences stand for … in GC…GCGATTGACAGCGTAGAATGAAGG
measurement.type: PBM binding z-score
Provide a numeric answer; units are not to be included.

# annotated cases, reported PBM binding z-score shown
>>> recorded_number("ATCTCTAGGTAAGACTCAGTTCAGGGAAGAACGC")
0.863
>>> recorded_number("CGAACTAGGTCACAGAGGTCAAAGTCCGTGCGTA")
7.06
>>> recorded_number("AATACAGGGTCACTAGGCCAGAGGAGGTACGAAT")
0.963

Give PBM binding z-score (LXRa homodimer (NR concentration 270 nM)) of the following sequence: TGAATGAGGTTATAAGATCCGGGAACGTTGCAAA
-0.3

Same for TCTTGTAGATCAGTAGGTTAAGAAAGCTGGCCAA
0.128

Same for CTCGAAAGGTCGTGCGCAGGTGAGTATACCAAAC
0.33

Same for ACTAGCAGGCCAAGTTTGGGTTACTCAAACAAAG
-0.394

Same for TAGCCTATGTCATTGGGCCAGTATAGTACGCATC
-0.519

Same for GCGACTGGGGCAAAGCAGGGTACCATAAGGTTGG
-0.964

Same for TAGCTTAGGTCATTCAGGGGCCAGTATAGAAAGC
0.984

Same for TCTTGTAGATCACCAGGAGGTTAAGAAAGATCGA
-0.0899

Same for TGTCAAAGTTCAATGGTAACGTAAGTATCCACAC
2.81

Same for CTCGAAAGGTCGTGCTCAGGGGAGTATACCAAAC
0.243

Same for ACTATTAGTTGAGACGAGGGCAACCAATAGGTTG
-0.167

Same for CCTTACGGGTCACTGACCGGTTATAGCATTTGGA
1.84

Same for CCTCGGAGAACAGAAGGTCAGAGCTGTCCGCTTT
0.757

Same for CCGACTGGGGCAGAAAGGTTACCCTACCATCCGG
-0.126

Same for TGTCAAGGTTCAAAGGTAACGTAAGTATCCACAC
1.39

Same for TCTCGGAGGACACGAAGGTGAGAGCTTTCCAGAG
-0.832

Same for CATACAGGGTCAGCTAGGCCAGATTAGGGACGGC
-0.059

Same for TAGCCTAGGTCATTCAGGGGCCGGTATAGAAAGC
1.03

Same for CGAACTAGGTCATCCAGGAGAGTGAATACATTGA
0.805

Same for CCAGACAGGTCAGAAGGTAACTCAGCCTCGATTA
0.142

Same for GTACCAAGGTGAATAGGTCGTTTATGAGTAGGCG
0.161

Same for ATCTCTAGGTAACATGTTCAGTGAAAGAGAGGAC
-0.139

Same for CGTCAAAGTTCAACGAAGGTAACGTAAAGCACGC
2.79
